Recorded values, source ChEMBL document CHEMBL4831557.

Known IC50 of a selection of molecules
Tested on: U2OS
procedureSummary: Cytotoxicity against human U2OS cells assessed as reduction in cell viability incubated for 48 hrs by MTT assay
Assay type: functional, cell-based
Hi! Could you send only the number? It should be in µM, unit omitted.

Example entries begin here.
C=C1C(=O)O[C@H]2[C@H]1CC/C(COC(=O)Cc1n[nH]c(=O)c3ccccc13)=C/CC[C@@]1(C)O[C@@H]21 :: 8.53
C=C1C(=O)O[C@H]2[C@H]1CC/C(COC(=O)c1cnnc3ccccc13)=C/CC[C@@]1(C)O[C@@H]21 :: 4.01

Q) Return reported IC50; argument: "C=C1C(=O)O[C@H]2[C@H]1CC/C(C(=O)Oc1ccc3nccc(Cl)c3c1)=C/CC[C@@]1(C)O[C@@H]21"
A) 2.21

Q) Return reported IC50; argument: "C=C1C(=O)O[C@H]2[C@H]1CC/C(COC(=O)Cc1ccc3ncccc3c1)=C/CC[C@@]1(C)O[C@@H]21"
A) 6.62

Q) Return reported IC50; argument: C=C1C(=O)O[C@@H]2C3O[C@]3(C)CC/C=C(\C)CC[C@@H]12 (stereo not given in full)
A) 7

Q) Return reported IC50; argument: "C=C1C(=O)O[C@H]2[C@H]1CC/C(CO)=C\CC[C@@]1(C)O[C@@H]21"
A) 10.7

Q) Return reported IC50; argument: "C/C1=C\CC[C@@]2(C)O[C@H]2[C@H]2OC(=O)/C(=C\c3ccc4ncccc4c3)[C@@H]2CC1"
A) 2.78

Q) Return reported IC50; argument: "C=C1C(=O)O[C@H]2[C@H]1CC/C(COC(=O)c1ccc3ccccc3n1)=C/CC[C@@]1(C)O[C@@H]21"
A) 2.22

Q) Return reported IC50; argument: "C=C1C(=O)O[C@H]2[C@H]1CC[C@]1(C)O[C@@H]1CC[C@@]1(C)O[C@@H]21"
A) 13

Q) Return reported IC50; argument: "C=C1C(=O)O[C@H]2[C@H]1CC/C(COC(=O)c1ccc3nccc(Br)c3c1)=C/CC[C@@]1(C)O[C@@H]21"
A) 1.79

Q) Return reported IC50; argument: "C=C1C(=O)O[C@H]2[C@H]1CC/C(COC(=O)c1ccc3nccnc3c1)=C/CC[C@@]1(C)O[C@@H]21"
A) 3.18

Q) Return reported IC50; argument: "C=C1C(=O)O[C@H]2[C@H]1CC/C(COC(=O)c1ccc3ncc(Br)cc3c1)=C/CC[C@@]1(C)O[C@@H]21"
A) 2.51

Q) Return reported IC50; argument: C=C1C(=O)O[C@H]2[C@H]1CC/C(C(=O)CN1CCN(C(=O)c3ccc4ccccc4n3)CC1C)=C/CC[C@@]1(C)O[C@@H]21 (stereo not given in full)
A) 21.7

Q) Return reported IC50; argument: C/C1=C\CC[C@@]2(C)O[C@H]2[C@H]2OC(=O)C(CN3CCN(C(=O)c4ccc5ccccc5n4)CC3)[C@@H]2CC1 (stereo not given in full)
A) 23.5

Q) Return reported IC50; argument: "C/C1=C\CC[C@@]2(C)O[C@H]2[C@H]2OC(=O)/C(=C\c3ccc4nc[nH]c(=O)c4c3)[C@@H]2CC1"
A) 24.6

* * *

Known pIC50 of a selection of compounds
System: U2OS
procedureSummary: Cytotoxicity against human U2OS cells assessed as reduction in cell viability incubated for 48 hrs by MTT assay
Assay type: functional, cell-based
The read-out pIC50 is expressed as -log10 of concentration in moles per litre.

Example entries begin here.
C=C1C(=O)O[C@H]2[C@H]1CC/C(COC(=O)c1ccc3ccccc3c1)=C/CC[C@@]1(C)O[C@@H]21 :: 5.45
C=C1C(=O)O[C@H]2[C@H]1CC/C(COC(=O)c1ccc3nc(C)ccc3c1)=C/CC[C@@]1(C)O[C@@H]21 :: 5.77
C=C1C(=O)O[C@H]2[C@H]1CC/C(C(=O)CN1CCCN(C(=O)c3ccc4ccccc4n3)CC1)=C/CC[C@@]1(C)O[C@@H]21 :: 4.97
C=C1C(=O)O[C@H]2[C@H]1CC/C(COC(=O)CCc1nc3ccccc3[nH]c1=O)=C/CC[C@@]1(C)O[C@@H]21 :: 5.16
C=C1C(=O)O[C@H]2[C@H]1CC/C(COC(=O)c1ccc3nc(O)ccc3c1)=C/CC[C@@]1(C)O[C@@H]21 :: 5.12

For the next question, use this compound.
Q) Return reported pIC50; argument: "C=C1C(=O)O[C@H]2[C@H]1CC/C(COC(=O)c1ccc3cccnc3c1)=C/CC[C@@]1(C)O[C@@H]21"
A) 5.89
